target: tissue carnosinase (Rattus norvegicus, UniProt Q6Q0N1); construct: Partially purified tissue carnosinase as a solution in 0.1M phosphate buffer (pH 7.0) is prepared from the crude brain extracts; from tissue; host or cells: brain of male Hairless rats; assay: Hydrolysis of L-carnosine and related substance with tissue carnosinase in the absence or presence of a carnosinase inhibitor; format: biochemical, male Hairless rats; settings: substrate L-Carnosine 0.08 mM + inhibitor 0.5 mM; pH 7.0, 37° C.
Sequence (Q6Q0N1 whole entry): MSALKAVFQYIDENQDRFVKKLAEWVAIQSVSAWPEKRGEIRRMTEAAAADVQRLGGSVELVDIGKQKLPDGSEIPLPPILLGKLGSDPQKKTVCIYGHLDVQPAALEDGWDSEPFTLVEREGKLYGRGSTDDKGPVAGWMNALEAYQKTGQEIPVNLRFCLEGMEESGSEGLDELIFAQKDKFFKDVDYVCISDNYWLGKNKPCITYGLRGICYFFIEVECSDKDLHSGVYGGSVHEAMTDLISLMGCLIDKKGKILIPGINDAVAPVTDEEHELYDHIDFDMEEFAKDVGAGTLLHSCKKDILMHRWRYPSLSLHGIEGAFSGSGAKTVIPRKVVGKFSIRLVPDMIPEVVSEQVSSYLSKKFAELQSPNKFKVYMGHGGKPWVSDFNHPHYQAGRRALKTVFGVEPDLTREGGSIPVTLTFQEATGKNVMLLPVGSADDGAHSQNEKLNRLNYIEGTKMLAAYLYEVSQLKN
Peptide text beside a SMILES is read from it.
measurement_kind: rate of hydrolysis (mol/min)

// below: answered molecules
{"columns": ["molecule", "unit_abbrev", "observed_value"],
 "data": [
  ["NCCCC(=O)NCCc1c[nH]cn1", "mol/min", "4.5e-06"],
  ["NCCC(=O)O", "mol/min", "5e-06"],
  ["NCC(=O)N[C@@H](Cc1cnc[nH]1)C(=O)O [Gly-L-His] (H-Gly-His-OH)", "mol/min", "6e-06"]
]}

a: O=C(O)[C@H](Cc1cnc[nH]1)NC(=O)[C@@H]1CCCN1
b: CC(=O)NCCC(=O)O
Inquiry: Looking at a and b , which one comes out lower in rate of hydrolysis terms? Which one? Tell me its label.
Reply text: b
